Experiment: Permeability of the compound
Format: ADME
Settings: not told; read-out: permeability
test-readout: Papp (×10⁻⁶ cm/s)
# unit: ×10⁻⁶ cm/s | format: bare number

GET /values?readout=Papp&item= Nc1ncnc2occ(-c3ccc(NC(=O)Nc4cc(C(F)(F)F)ccc4F)cc3)c12 [GW770249X]
21

* * *

Target: Receptor-interacting serine/threonine-protein kinase 1 (Homo sapiens)
Assay: Inhibition of human N-terminal His-GST-TEV-fused RIP1 kinase domain (1 to 375) autophosphorylation expressed in baculovirus infected insect Sf9 cells after 4 hrs by ADP-Glo luminescence assay
Catalogue of IC50 values

Take a look at these entries with their results.
O=C(Nc1ccccc1)Nc1cccc(-c2c[nH]c3ncc(-c4ccccc4)cc23)c1 : 400 nM
CS(=O)(=O)c1cccc(-c2cnc3[nH]cc(-c4cccc(NC(=O)Nc5cc(C(F)(F)F)ccc5F)c4)c3c2)c1 : 10 nM
Nc1ncnc2occ(-c3ccc(NC(=O)Nc4cccc(C(F)(F)F)c4F)cc3)c12 : 200 nM
O=C(Nc1cccc(-c2c[nH]c3ncc(-c4ccccc4)cc23)c1)Nc1cccc([N+](=O)[O-])c1 : 16 nM
COc1cccc(NC(=O)Nc2cccc(-c3c[nH]c4ncc(-c5ccccc5)cc34)c2)c1 : 6.3 nM

# input for lookup
Entry "Nc1ccc(-c2cnc3[nH]cc(-c4cccc(NC(=O)Nc5cc(C(F)(F)F)ccc5F)c4)c3c2)cc1" : reported IC50 = ?
50 nM

* * *

Biological target: Receptor-interacting serine/threonine-protein kinase 1 (Homo sapiens)
Sequence (Q13546 whole entry): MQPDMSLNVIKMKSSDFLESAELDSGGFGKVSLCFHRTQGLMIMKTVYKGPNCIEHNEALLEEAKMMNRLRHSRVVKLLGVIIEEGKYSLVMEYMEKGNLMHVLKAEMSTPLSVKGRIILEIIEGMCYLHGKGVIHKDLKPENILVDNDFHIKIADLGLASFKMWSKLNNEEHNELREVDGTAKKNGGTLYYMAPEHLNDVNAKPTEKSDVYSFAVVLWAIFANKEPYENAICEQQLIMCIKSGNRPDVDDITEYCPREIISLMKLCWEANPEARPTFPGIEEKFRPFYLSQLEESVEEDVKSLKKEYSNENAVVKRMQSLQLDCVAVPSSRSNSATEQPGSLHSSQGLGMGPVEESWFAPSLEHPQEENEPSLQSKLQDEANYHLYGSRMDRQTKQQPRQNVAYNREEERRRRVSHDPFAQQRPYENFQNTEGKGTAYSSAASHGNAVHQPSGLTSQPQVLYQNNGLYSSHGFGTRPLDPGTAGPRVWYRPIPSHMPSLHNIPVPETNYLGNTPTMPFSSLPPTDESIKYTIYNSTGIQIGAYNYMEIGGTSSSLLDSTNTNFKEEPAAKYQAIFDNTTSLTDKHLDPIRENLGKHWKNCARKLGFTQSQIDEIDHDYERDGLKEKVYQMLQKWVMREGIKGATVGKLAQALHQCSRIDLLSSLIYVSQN
Assay: Displacement of (14-(2-{[3-({2-{[4-(cyanomethyl)phenyl]amino}-6-[(5-cyclopropyl-1H-pyrazol-3-yl)amino]-4-pyrimidinyl}amino)propyl]amino}-2-oxoethyl)-16,16,18,18-tetramethyl-6,7,7a,8a,9,10,16,18-octahydrobenzo[2'',3'']indolizino[8'',7'':5',6']pyrano[3',2':3,4]pyrido[1,2-a]indol-5-ium-2-sulfonate from human N-terminal His-GST-TEV-fused RIP1 kinase domain (1 to 375) expressed in baculovirus infected insect Sf9 cells preincubated for 10 mins followed by fluorescent ligand addition measured after 15 mins by fluorescence polarization assay
pIC50: −log10 of the molar value.
Use 7 as the dividing line for pIC50, with the line itself on the Criterion met side and lower values as Criterion not met.

Examples from the recorded data:
Nc1nccc2c(-c3ccc(NC(=O)Nc4cc(C(F)(F)F)ccc4Cl)cc3)cccc12 : Criterion not met
O=C(Nc1cccc(-c2c[nH]c3ncc(-c4cn[nH]c4)cc23)c1)Nc1cc(C(F)(F)F)ccc1F : Criterion met
O=C(Nc1cccc(-c2c[nH]c3ncc(-c4ccccc4)cc23)c1)NC1CCCC1 : Criterion not met
O=C(Nc1cccc(-c2c[nH]c3ncc(-c4ccccc4)cc23)c1)Nc1cccc([N+](=O)[O-])c1 : Criterion met

Quick check: does "O=C(Nc1ccccc1)Nc1cccc(-c2c[nH]c3ncc(-c4ccccc4)cc23)c1" have pIC50 greater than or equal to 7?
Criterion not met

Similarly, "Nc1ncnc2occ(-c3ccc(NC(=O)Nc4cccc(C(F)(F)F)c4F)cc3)c12" ?
Criterion not met

Then what about the compound "CCc1cccc(NC(=O)Nc2ccc(-c3coc4ncnc(N)c34)cc2)c1" ?
Criterion met

Please give the result for Nc1ncnc2occ(-c3ccc(NC(=O)Nc4cccc(C(F)(F)F)c4)cc3)c12 [GW795493X] too.
Criterion met

Try "CC(C)(C)c1cc(NC(=O)Nc2ccc(-c3coc4ncnc(N)c34)cc2)no1" next.
Criterion met

Same question for "Nc1nccc2c(-c3ccc(NC(=O)Nc4cccc(C(F)(F)F)c4F)cc3)cccc12" please.
Criterion not met

Next up: "Nc1nccc2c(-c3ccc(NC(=O)Nc4ccc(F)c(C(F)(F)F)c4)cc3)cccc12"
Criterion not met

* * *

Target: Receptor-interacting serine/threonine-protein kinase 1 (Homo sapiens)
Test: Displacement of (14-(2-{[3-({2-{[4-(cyanomethyl)phenyl]amino}-6-[(5-cyclopropyl-1H-pyrazol-3-yl)amino]-4-pyrimidinyl}amino)propyl]amino}-2-oxoethyl)-16,16,18,18-tetramethyl-6,7,7a,8a,9,10,16,18-octahydrobenzo[2'',3'']indolizino[8'',7'':5',6']pyrano[3',2':3,4]pyrido[1,2-a]indol-5-ium-2-sulfonate from human N-terminal His-GST-TEV-fused RIP1 kinase domain (1 to 375) expressed in baculovirus infected insect Sf9 cells preincubated for 10 mins followed by fluorescent ligand addition measured after 15 mins by fluorescence polarization assay
test-readout: pIC50
By convention, pIC50 is the negative base-10 log of a molar concentration.

Sample answers from the record:
COc1cccc(NC(=O)Nc2cccc(-c3c[nH]c4ncc(-c5ccccc5)cc34)c2)c1 : 7.49
Nc1nccc2c(-c3ccc(NC(=O)Nc4cc(C(F)(F)F)ccc4F)cc3)cccc12 : 7.89
Nc1ncnc2occ(-c3ccc(NC(=O)Nc4ccc(F)c(C(F)(F)F)c4)cc3)c12 : 6.80
Nc1ncnc2occ(-c3ccc(NC(=O)Nc4cc(C(F)(F)F)cc(C(F)(F)F)c4)cc3)c12 [GW795486X] : 6.49
NC(=O)c1cccc(-c2cnc3[nH]cc(-c4cccc(NC(=O)Nc5cc(C(F)(F)F)ccc5F)c4)c3c2)c1 : 7.80

Quick check: pIC50 on Receptor-interacting serine/threonine-protein kinase 1 (Homo sapiens), item "Nc1ccc(-c2cnc3[nH]cc(-c4cccc(NC(=O)Nc5cc(C(F)(F)F)ccc5F)c4)c3c2)cc1" ?
7.49

How about this molecule: "Nc1nccc2c(-c3ccc(NC(=O)Nc4ccc(Cl)c(C(F)(F)F)c4)cc3)cccc12"
7.40

Note, next up: "Nc1ncnc2occ(-c3ccc(NC(=O)Nc4cccc(Cl)c4)cc3)c12"
6.80

Here is the next molecule: "O=C(Nc1cccc(-c2c[nH]c3ncc(-c4ccccc4)cc23)c1)Nc1cccc(C(F)(F)F)c1"
7.49

* * *

Assay: AUC in C57BL/6 mouse at 2 mg/kg, po measured at 4 hrs
Format: ADME, organism-based
Set-up: dose 2 mg/kg, route oral
Conditions: plasma
test-readout: AUC at 4 h (ng·h/mL)
Your answer should be a plain number; it is taken to be in ng·h/mL.

Consider the compound Nc1ncnc2occ(-c3ccc(NC(=O)Nc4cc(C(F)(F)F)ccc4F)cc3)c12 [GW770249X] and give its measured AUC at 4 h.
14000

* * *

Target: Receptor-interacting serine/threonine-protein kinase 1 (Homo sapiens)
Assay: Inhibition of human N-terminal His-GST-TEV-fused RIP1 kinase domain (1 to 375) autophosphorylation expressed in baculovirus infected insect Sf9 cells after 4 hrs by ADP-Glo luminescence assay
pIC50: −log10 of the molar value.
# binarize pIC50: threshold 7 inclusive, high side class 1, low side class 0

Nc1nccc2c(-c3ccc(NC(=O)Nc4ccc(F)c(C(F)(F)F)c4)cc3)cccc12 : class 1
Nc1ncnc2occ(-c3ccc(NC(=O)Nc4cc(C(F)(F)F)cc(C(F)(F)F)c4)cc3)c12 [GW795486X] : class 1
CCc1cccc(NC(=O)Nc2ccc(-c3coc4ncnc(N)c34)cc2)c1 : class 1

Does "Nc1ncnc2occ(-c3ccc(NC(=O)Nc4cccc(Cl)c4)cc3)c12" have a reported pIC50 of at least 7?
class 0

// next record "CC(=O)c1cccc(NC(=O)Nc2cccc(-c3c[nH]c4ncc(-c5ccccc5)cc34)c2)c1"
class 1

* * *

Assay: Cmax in C57BL/6 mouse at 2 mg/kg, po measured at 4 hrs
Assay type: ADME, organism-based
Set-up: dose 2 mg/kg, route oral
Conditions: in vivo
test-readout: Cmax (ng/mL)
Reply numerically in ng/mL, unit not repeated.

Can you look up the measured Cmax of Nc1ncnc2occ(-c3ccc(NC(=O)Nc4cc(C(F)(F)F)ccc4F)cc3)c12 [GW770249X] for me?
1100

Value source: ChEMBL document CHEMBL3108776
